# assay-summary: Toxicokinetics of PNA5 in Sprague Dawley rat plasma
# test-settings: both, Sprague Dawley, rat, plasma, sc, 40 mg/kg/day, AUC0–2, rats, plasma, s.c. 40 mg/kg/day, day 28, sexes combined, mean ± SD, n = 6, linear trapezoidal
Peptide text beside a SMILES is read from it. * marks the point of attachment. βGlc = OC[C@H]1O[C@@H](*)[C@H](O)[C@@H](O)[C@@H]1O
assay-metric: AUC(0-t) (ng·h/mL)
Express the result in ng·h/mL but write the number alone.

For CC[C@H](C)[C@H](NC(=O)[C@H](Cc1ccc(O)cc1)NC(=O)[C@@H](NC(=O)[C@H](CCCNC(=N)N)NC(=O)[C@@H](N)CC(=O)O)C(C)C)C(=O)N[C@@H](Cc1c[nH]cn1)C(=O)N[C@@H](CO[C@@H]1O[C@H](CO)[C@@H](O)[C@H](O)[C@H]1O)C(N)=O [PNA5, Ang-1–6-Ser-O-Glu-NH2] (H-DRVYIHS(βGlc)-NH2) , what is its reported AUC(0-t)?
29.6

====

# assay-summary: Toxicokinetics of PNA5 in Sprague Dawley rat plasma
# test-settings: both, Sprague Dawley, rat, plasma, sc, 40 mg/kg/day, Half-life, rats, plasma, s.c. 40 mg/kg/day, day 28, sexes combined, mean ± SD, n = 6, Ln(2)/Kel
Peptide text beside a SMILES is read from it. * marks the point of attachment. βGlc = OC[C@H]1O[C@@H](*)[C@H](O)[C@@H](O)[C@@H]1O
assay-metric: half-life (min)
Express the result in min but write the number alone.

For CC[C@H](C)[C@H](NC(=O)[C@H](Cc1ccc(O)cc1)NC(=O)[C@@H](NC(=O)[C@H](CCCNC(=N)N)NC(=O)[C@@H](N)CC(=O)O)C(C)C)C(=O)N[C@@H](Cc1c[nH]cn1)C(=O)N[C@@H](CO[C@@H]1O[C@H](CO)[C@@H](O)[C@H](O)[C@H]1O)C(N)=O [PNA5, Ang-1–6-Ser-O-Glu-NH2] (H-DRVYIHS(βGlc)-NH2) , what is its reported half-life?
23.4

====

# assay-summary: Toxicokinetics of PNA5 in Beagle dog plasma
# test-settings: both, Beagle, dog, plasma, sc, 20 mg/kg/day, AUC0–2, dogs, plasma, s.c. 20 mg/kg/day, day 28, sexes combined, mean ± SD, n = 10, linear trapezoidal
Peptide text beside a SMILES is read from it. * marks the point of attachment. βGlc = OC[C@H]1O[C@@H](*)[C@H](O)[C@@H](O)[C@@H]1O
assay-metric: AUC(0-t) (µg·h/mL)
Express the result in µg·h/mL but write the number alone.

For CC[C@H](C)[C@H](NC(=O)[C@H](Cc1ccc(O)cc1)NC(=O)[C@@H](NC(=O)[C@H](CCCNC(=N)N)NC(=O)[C@@H](N)CC(=O)O)C(C)C)C(=O)N[C@@H](Cc1c[nH]cn1)C(=O)N[C@@H](CO[C@@H]1O[C@H](CO)[C@@H](O)[C@H](O)[C@H]1O)C(N)=O [PNA5, Ang-1–6-Ser-O-Glu-NH2] (H-DRVYIHS(βGlc)-NH2) , what is its reported AUC(0-t)?
1.08

====

# assay-summary: Toxicokinetics of PNA5 in Sprague Dawley rat plasma
# test-settings: both, Sprague Dawley, rat, plasma, sc, 1 mg/kg/day, AUC0–2, rats, plasma, s.c. 1 mg/kg/day, day 1, sexes combined, mean ± SD, n = 6, linear trapezoidal
Peptide text beside a SMILES is read from it. * marks the point of attachment. βGlc = OC[C@H]1O[C@@H](*)[C@H](O)[C@@H](O)[C@@H]1O
assay-metric: AUC(0-t) (ng·h/mL)
Express the result in ng·h/mL but write the number alone.

For CC[C@H](C)[C@H](NC(=O)[C@H](Cc1ccc(O)cc1)NC(=O)[C@@H](NC(=O)[C@H](CCCNC(=N)N)NC(=O)[C@@H](N)CC(=O)O)C(C)C)C(=O)N[C@@H](Cc1c[nH]cn1)C(=O)N[C@@H](CO[C@@H]1O[C@H](CO)[C@@H](O)[C@H](O)[C@H]1O)C(N)=O [PNA5, Ang-1–6-Ser-O-Glu-NH2] (H-DRVYIHS(βGlc)-NH2) , what is its reported AUC(0-t)?
0.263
